- System: Spodoptera litura
- experiment_notes: Antifeedant activity against Spodoptera litura F. by choice leaf disk assay
- Type: functional
Task for the reader: assign each of the following compounds its reported log10 ED50.
Lab note - ED50 converted to log10 from values in umol/cm2.

Task: Report measured log10 ED50; entry is "O=c1ccoc2ccccc12"
Result: -0.77

Task: Report measured log10 ED50; entry is "COc1ccc2c(=O)cc(-c3ccccc3)oc2c1"
Result: -1.23

Task: Report measured log10 ED50; entry is "O=c1cc(-c2ccccc2)oc2cc(O)cc(O)c12"
Result: 0.40

Task: Report measured log10 ED50; entry is "Cc1ccc2oc(-c3ccccc3)cc(=O)c2c1"
Result: -1.46

Task: Report measured log10 ED50; entry is COc1ccc(-c2oc3c(OC)c(OC)c(OC)c(O)c3c(=O)c2OC)cc1 [5-HYDROXYAURANETIN]
Result: -0.96

Task: Report measured log10 ED50; entry is "Cc1ccc2c(=O)cc(C)oc2c1"
Result: -0.99

Task: Report measured log10 ED50; entry is "COc1ccc(-c2cc(=O)c3c(OC)c(OC)c(OC)c(OC)c3o2)cc1"
Result: -0.55

Task: Report measured log10 ED50; entry is "O=c1cc(-c2ccccc2)oc2ccccc12"
Result: -0.96

Task: Report measured log10 ED50; entry is "COc1cc2oc(C)cc(=O)c2c(OC)c1OC"
Result: -0.39

Task: Report measured log10 ED50; entry is "COc1ccc2c(=O)ccoc2c1"
Result: -1.02

Task: Report measured log10 ED50; entry is "COc1ccc2oc(-c3ccccc3)cc(=O)c2c1"
Result: -0.82

Task: Report measured log10 ED50; entry is "COc1c(O)cc(O)c2c(=O)cc(-c3ccccc3)oc12"
Result: 0.30

====

- Test system: Spodoptera litura
- experiment_notes: Antifeedant activity against Spodoptera litura F. by choice leaf disk assay
- Assay type: functional
Task for the reader: assign each of the following compounds its reported ED50.
Dear colleague, please return just the value in umol/cm2, with no unit written.

Task: Report measured ED50; entry is "O=c1cc(-c2ccccc2)oc2c(O)c(O)cc(O)c12"
Result: 1.52

Task: Report measured ED50; entry is "COc1ccc(-c2cc(=O)c3c(OC)c(OC)c(OC)c(OC)c3o2)cc1OC"
Result: 5.6

Task: Report measured ED50; entry is "O=c1cc(-c2ccccc2)oc2cc(O)c(O)c(O)c12"
Result: 0.96
